biological target: UniProtKB P23458; experiment: JAK Human TK kinase enzymatic radiometric assay (Eurofins), JAK 1; settings: 0.1 nM; value close to 100 indicates low JAK activity of the compound
Sequence (P23458 whole entry): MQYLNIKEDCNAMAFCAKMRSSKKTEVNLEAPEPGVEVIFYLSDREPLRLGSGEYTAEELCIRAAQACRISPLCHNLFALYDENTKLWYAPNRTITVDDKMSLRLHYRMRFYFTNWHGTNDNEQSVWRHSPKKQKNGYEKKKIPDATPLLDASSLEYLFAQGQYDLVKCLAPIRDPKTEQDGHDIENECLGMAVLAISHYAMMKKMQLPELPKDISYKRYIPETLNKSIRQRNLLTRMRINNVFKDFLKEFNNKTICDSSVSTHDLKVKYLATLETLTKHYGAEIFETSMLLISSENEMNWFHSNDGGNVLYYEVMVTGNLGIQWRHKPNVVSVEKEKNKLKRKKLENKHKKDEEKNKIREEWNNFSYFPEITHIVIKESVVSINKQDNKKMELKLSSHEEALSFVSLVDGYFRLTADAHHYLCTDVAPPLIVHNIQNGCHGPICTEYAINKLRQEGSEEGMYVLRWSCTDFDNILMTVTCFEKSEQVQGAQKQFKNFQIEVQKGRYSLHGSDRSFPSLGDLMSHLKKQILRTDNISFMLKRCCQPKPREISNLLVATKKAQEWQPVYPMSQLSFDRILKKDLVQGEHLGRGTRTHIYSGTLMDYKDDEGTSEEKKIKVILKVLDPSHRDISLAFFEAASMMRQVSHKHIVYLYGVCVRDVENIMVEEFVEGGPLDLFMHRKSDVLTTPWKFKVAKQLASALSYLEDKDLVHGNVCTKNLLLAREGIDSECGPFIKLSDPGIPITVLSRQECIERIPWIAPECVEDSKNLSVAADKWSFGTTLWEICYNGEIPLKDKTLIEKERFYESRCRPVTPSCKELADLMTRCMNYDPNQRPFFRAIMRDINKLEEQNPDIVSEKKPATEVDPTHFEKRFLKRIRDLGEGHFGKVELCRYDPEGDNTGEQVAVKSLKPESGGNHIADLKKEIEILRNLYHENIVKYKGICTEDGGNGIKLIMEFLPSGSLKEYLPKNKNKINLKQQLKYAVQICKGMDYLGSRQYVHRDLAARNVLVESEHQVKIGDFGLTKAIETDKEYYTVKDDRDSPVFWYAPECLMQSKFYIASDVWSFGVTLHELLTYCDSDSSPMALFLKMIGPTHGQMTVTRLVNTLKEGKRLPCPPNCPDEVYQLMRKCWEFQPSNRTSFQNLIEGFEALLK
observed.property: JAK 1 Activity

Cc1ccc(NC(=O)N(C)CCN(C)C(=O)n2ccc3c(N(C)[C@H]4CN(C(=O)CC#N)CC[C@H]4C)ncnc32)c(N)c1 [Example 15] ... 102
C[C@@H]1CCN(C(=O)CC#N)C[C@@H]1N(C)c1ncnc2c1ccn2C(=O)Nc1ccccc1N [Example 1] ... 101
COc1ccc(NC(=O)N(C(=O)n2ccc3c(N(C)[C@H]4CN(C(=O)CC#N)CC[C@H]4C)ncnc32)c2ccc(OC)cc2N)c(N)c1 [Example 13] ... 110
C[C@@H]1CCN(C(=O)CC#N)C[C@@H]1N(C)c1ncnc2c1ccn2C(=O)N(C)CCN(C)C(=O)Nc1cc(N(C)C)ccc1N [Example 21] ... 97
Cc1ccc(N)c(NC(=O)N(C)CCN(C)C(=O)n2ccc3c(N(C)[C@H]4CN(C(=O)CC#N)CC[C@H]4C)ncnc32)c1 [Example 16] ... 101
Cc1ccc(NC(=O)N(C(=O)n2ccc3c(N(C)[C@H]4CN(C(=O)CC#N)CC[C@H]4C)ncnc32)c2ccc(C)cc2N)c(N)c1 [Example 12] ... 109
C[C@@H]1CCN(C(=O)CC#N)C[C@@H]1N(C)c1ncnc2c1ccn2C(=O)N(C)CCN(C)C(=O)Nc1cc2c(cc1N)n(C)c(=O)n2C [Example 22] ... 91
C[C@@H]1CCN(C(=O)CC#N)C[C@@H]1N(C)c1ncnc2c1ccn2C(=O)N(C)CCN(C)C(=O)Nc1cc(N(C)C)ccc1NC(=O)OCc1ccc(B(O)O)cc1 [Example 23] ... 94
C[C@@H]1CCN(C(=O)CC#N)C[C@@H]1N(C)c1ncnc2c1ccn2C(=O)N(C(=O)Nc1ccccc1N)c1ccccc1N [Example 11] ... 108

FYI, the data here is from patent EP4741395A1.
